biological target: leukotriene receptor; assay: leukotriene receptor binding assay (RBL-1)
Measure: IC50 (µM)

Known results for compounds:
[
  {
    "Compound": "CCCCC/C=C\\C1C=CCC=CC1CCCC(=O)O (stereo not drawn)",
    "Measure": "IC50",
    "Number": 53.4
  },
  {
    "Compound": "CCCCC/C=C\\C=C\\C1CC1/C=C\\CCCCCC(=O)O (stereo not drawn)",
    "Measure": "IC50",
    "Number": 10.3
  },
  {
    "Compound": "CCCCC/C=C\\C1C=CCC=CC1CCCCCC(=O)O (stereo not drawn)",
    "Measure": "IC50",
    "Number": 26.4
  }
]

I. CCCCC/C=C\C=C\C1CC1/C=C\CCCC(=O)O (stereo not drawn)
II. CCCCC/C=C\C1C=CCCC=C1/C=C\CCCC(=O)O (stereo not drawn)
Task item: When I and II are compared, which has the higher number for IC50? To answer, give the label that identifies your chosen option.
Reply: I
